target: IRAK4 (Homo sapiens, UniProt Q9NWZ3); construct: Degradation of IRAK4 in OCI-LY10 was quantitatively measured using Meso Scale Discovery technology; endogenous in cells; host or cells: OCI-LY10; test: IRAK4 MSD Degradation in OCI-LY10; format: cell-based; details: OCI-LY10 cells, 24 hrs incubation, MSD; read-out: IRAK4 degradation in OCI-LY10 at 24 hrs: DC50
Sequence (Q9NWZ3 whole entry): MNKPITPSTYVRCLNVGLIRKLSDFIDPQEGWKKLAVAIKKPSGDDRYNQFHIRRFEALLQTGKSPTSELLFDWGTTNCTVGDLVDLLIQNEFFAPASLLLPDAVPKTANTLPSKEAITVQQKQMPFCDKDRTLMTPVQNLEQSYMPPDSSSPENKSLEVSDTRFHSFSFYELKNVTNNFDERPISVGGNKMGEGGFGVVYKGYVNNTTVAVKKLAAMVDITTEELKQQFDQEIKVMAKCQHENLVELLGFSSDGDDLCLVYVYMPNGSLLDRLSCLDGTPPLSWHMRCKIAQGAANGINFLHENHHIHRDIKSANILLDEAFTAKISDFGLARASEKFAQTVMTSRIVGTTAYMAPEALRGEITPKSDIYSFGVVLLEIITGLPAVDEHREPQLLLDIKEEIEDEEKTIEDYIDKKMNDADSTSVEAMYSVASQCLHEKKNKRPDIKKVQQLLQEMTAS
Overview of recorded DC50 for various molecules

Solved entries (count: 5):
Cc1ccc(-c2nn([C@H]3CC[C@H](CN4CCC(OCC#Cc5cccc6c5n(C)c(=O)n6C5CCC(=O)NC5=O)CC4)CC3)cc2NC(=O)c2cnn3cccnc23)c(F)c1 (some centres unmarked) [I-171] ... 10 to 100 nM
Cc1ccc(-c2nn([C@H]3CC[C@H](CN(C)C4CCN(c5cccc6c5n(C)c(=O)n6C5CCC(=O)NC5=O)CC4)CC3)cc2NC(=O)c2cnn3cccnc23)c(F)c1 (some centres unmarked) [I-293] ... > 200 nM
COc1nn([C@H]2CC[C@H](CN3CC4CC3CN4c3cccc4c3n(C)c(=O)n4C3CCC(=O)NC3=O)CC2)cc1NC(=O)c1cnn2cc(N(C)C)cnc12 (some centres unmarked) [I-214] ... > 200 nM
Cn1c(=O)n(C2CCC(=O)NC2=O)c2cccc(C3CCN(C[C@H]4CC[C@H](n5cc6cc(NC(=O)c7cccc(C(F)(F)F)n7)c(F)cc6n5)CC4)CC3(F)F)c21 (some centres unmarked) [I-449] ... > 200 nM
Cn1c(=O)n(C2CCC(=O)NC2=O)c2cccc(C#CCOC3CCN(C[C@H]4CC[C@H](n5cc(NC(=O)c6cccc(C#N)n6)c(C(F)F)n5)CC4)CC3)c21 (some centres unmarked) [I-260] ... > 200 nM

Indicate its recorded DC50; the molecule in question is Cn1c(=O)n(C2CCC(=O)NC2=O)c2cccc(C3CC(OC4CCN(C[C@H]5CC[C@H](n6cc(NC(=O)c7cnn8ccc(N9C[C@H]%10C[C@@H]9CO%10)nc78)c(C(F)F)n6)CC5)CC4)C3)c21 (some centres unmarked) [I-68]
> 200 nM

Indicate its recorded DC50; the molecule in question is C[C@H]1CN(C[C@H]2CC[C@H](n3cc(NC(=O)c4cnn5ccc(N6C[C@H]7C[C@@H]6CO7)nc45)c(C(F)F)n3)CC2)CC[C@@H]1OCC#Cc1cccc2c1n(C)c(=O)n2[C@H]1CCC(=O)NC1=O (single isomer, unassigned) [I-67]
> 200 nM

Indicate its recorded DC50; the molecule in question is Cn1c(=O)n(C2CCC(=O)NC2=O)c2cccc(C3CCN(C[C@H]4CC[C@H](n5cc6cc(NC(=O)c7cccc(C(F)(F)F)n7)ccc6n5)CC4)CC3(F)F)c21 (some centres unmarked) [I-708]
10 to 100 nM

Indicate its recorded DC50; the molecule in question is Cn1c(=O)n(C2CCC(=O)NC2=O)c2cccc([C@@H]3CCN(C[C@H]4CC[C@H](n5cc6cc(NC(=O)c7cccc(C#N)n7)ccc6n5)CC4)C[C@H]3F)c21 (some centres unmarked) [I-625]
< 10 nM

Indicate its recorded DC50; the molecule in question is Cn1c(=O)n(C2CCC(=O)NC2=O)c2cccc([C@@H]3CCN(C[C@H]4CC[C@H](n5cc6cc(NC(=O)c7cccc(C(F)F)n7)ccc6n5)CC4)C[C@H]3F)c21 (some centres unmarked) [I-629]
< 10 nM

Indicate its recorded DC50; the molecule in question is CN(C[C@H]1CC[C@H](n2cc3cc(NC(=O)c4cccc(C(F)(F)F)n4)c([S+](C)[O-])cc3n2)CC1)C1CCN(c2cccc3c2n(C)c(=O)n3C2CCC(=O)NC2=O)CC1F (some centres unmarked) [I-561]
> 200 nM
